The reported numbers originate from paper PMC10630842.

# Assay notes: in vitro
# Type: in vitro ADME, human
# Experimental context: human, Caco-2
Endpoint label: Papp A→B at 150 min, 10 μmol/L
Hey, just the number and the unit after it is fine.

[in] I am curious: what Papp A→B at 150 min, 10 μmol/L value has been reported for O=c1cc(-c2ccccc2)oc2c(O)c(O)ccc12 [7,8‐DHF, 7,8‐Dihydroxyflavone] ?
[out] 1.19 ×10⁻⁶ cm/s

----------
# Assay notes: in vitro
# Type: in vitro ADME, human
# Experimental context: human, Caco-2
Endpoint label: efflux ratio at 150 min, 10 μmol/L
Respond using a number only.

[in] I am curious: what efflux ratio at 150 min, 10 μmol/L value has been reported for O=c1cc(-c2ccccc2)oc2c(O)c(O)ccc12 [7,8‐DHF, 7,8‐Dihydroxyflavone] ?
[out] 1.61
